assay-system: LPA3R (Homo sapiens, UniProt Q9UBY5)
procedure-details: LPA3R antagonist activity (Table 1, calcium flux FLIPR)
Procedure: Calcium Flux Assay Using Fluorometric Imaging Plate Reader (FLIPR) After incubation, both the cell and “assay” plates were brought to the FLIPR and 20 μL of the diluted compounds were transferred to the cell plates by the FLIPR. Compound addition was monitored by FLIPR to detect any agonist activity of the compounds. […] During the assay, fluorescence readings were taken simultaneously from all 384 wells of the cell plate every 1.5 seconds. […]
quantity-measured: IC50

Some entries whose results are on file:
{"compound": "CC(OC(=O)Nc1c(-c2ccc(-c3ccc(C4(C(=O)O)CC4)cc3)cc2)cnn1C)c1ccc(F)cc1 (centres unmarked)", "quantity-measured": "IC50", "observed-result": "8.26 µM"}
{"compound": "CC(C)[C@@H](C)OC(=O)Nc1c(-c2ccc(-c3ccc(C4(C(=O)O)CC4)cc3)cc2)cnn1C", "quantity-measured": "IC50", "observed-result": "> 30 µM"}
{"compound": "Cn1ncc(-c2ccc(-c3ccc(C4(C(=O)O)CC4)cc3)cc2)c1NC(=O)OC1CCC1", "quantity-measured": "IC50", "observed-result": "> 30 µM"}
{"compound": "CC(OC(=O)Nc1c(-c2ccc(-c3ccc(C4(C(=O)O)CC4)cc3)cc2)cnn1C)c1ccccc1Cl (centres unmarked)", "quantity-measured": "IC50", "observed-result": "2.47 µM"}
{"compound": "Cn1ncc(-c2ccc(-c3ccc(C4(C(=O)O)CC4)cc3)cc2)c1NC(=O)NCc1ccccc1", "quantity-measured": "IC50", "observed-result": "> 30 µM"}

Measured IC50 of "CC[C@@H](C)OC(=O)Nc1c(-c2ccc(-c3ccc(C4(C(=O)O)CC4)cc3)cc2)cnn1C" : > 30 µM

Measured IC50 of "C[C@@H](OC(=O)Nc1c(-c2ccc(-c3ccc(CC(=O)O)cc3)cc2)cnn1C)c1ccccc1" : > 30 µM

Measured IC50 of "C[C@@H](OC(=O)Nc1c(-c2ccccc2)cnn1C)c1ccccc1" : > 30 µM

Measured IC50 of "C[C@@H](OC(=O)Nc1c(-c2ccc(-c3ccc(C4(C(=O)O)CC4)cc3)cc2)cnn1C)c1cccc(C(F)(F)F)c1" : 0.478 µM

Measured IC50 of "C[C@@H](OC(=O)Nc1c(-c2ccc(-c3ccc(C4(C(=O)O)CC4)cc3)cc2)cnn1C)c1ccccc1F" : 5.8 µM

Measured IC50 of "CCOC(=O)C1(c2ccc(-c3ccc(-c4cnn(C)c4NC(=O)O[C@H](C)c4ccccc4)cc3)cc2)CC1" : > 30 µM

----------
assay-system: human recombinant LPA1 Lysophospholipid receptor (Homo sapiens)
procedure-details: Calcium flux assay using FLIPR, LPA1R antagonist activity
experimental-parameters: ChemiScreen calcium-optimized stable cell line, FLIPR calcium flux, antagonist mode
pIC50: −log10 of the molar value.
quantity-measured: pIC50

{"compound": "CCOC(=O)C1(c2ccc(-c3ccc(-c4cnn(C)c4NC(=O)O[C@H](C)c4ccccc4)cc3)cc2)CC1", "observed-result": 5.80}

(1) CC(OC(=O)Nc1c(-c2ccc(-c3ccc(C4(C(=O)O)CC4)cc3)cc2)cnn1C)c1ccc(F)cc1 (stereo not shown)
(2) Cn1ncc(-c2ccc(-c3ccc(C4(C(=O)O)CC4)cc3)cc2)c1NC(=O)NCc1ccccc1
Query :: Which has the smaller recorded pIC50, 1 or 2 ? Answer = label.
Result :: 2

(P) C[C@@H](OC(=O)Nc1c(-c2ccc(-c3ccc(CC(=O)O)cc3)cc2)cnn1C)c1ccccc1
(Q) CC(OC(=O)Nc1c(-c2ccc(-c3ccc(C4(C(=O)O)CC4)cc3)cc2)cnn1C)c1ccccc1Cl (stereo not shown)
(R) C[C@@H](OC(=O)Nc1c(-c2ccccc2)cnn1C)c1ccccc1
Query :: Which order do these items take when sorted by rising pIC50? List them. Provide the labels, sequenced as the question asks.
Result :: R, Q, P
(R: 4.76, Q: 6.95, P: 7.46)

----------
assay-system: human recombinant LPA1 Lysophospholipid receptor (Homo sapiens, UniProt Q92633)
Sequence (Q92633 whole entry): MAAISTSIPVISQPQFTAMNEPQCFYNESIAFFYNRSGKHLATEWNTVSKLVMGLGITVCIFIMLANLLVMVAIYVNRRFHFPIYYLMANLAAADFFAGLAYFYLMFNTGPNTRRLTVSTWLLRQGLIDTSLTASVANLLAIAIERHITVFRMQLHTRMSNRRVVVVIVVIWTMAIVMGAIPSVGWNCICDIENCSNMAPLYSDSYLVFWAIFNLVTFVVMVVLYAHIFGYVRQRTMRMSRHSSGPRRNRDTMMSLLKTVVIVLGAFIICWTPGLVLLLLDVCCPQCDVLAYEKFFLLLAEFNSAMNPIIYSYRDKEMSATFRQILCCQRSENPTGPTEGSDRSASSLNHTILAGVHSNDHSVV
procedure-details: Calcium flux assay using FLIPR, LPA1R antagonist activity
Type: cell-based
experimental-parameters: @ 30 μM
quantity-measured: inhibition at 30 µM (%)

(P) C[C@@H](OC(=O)Nc1c(-c2ccccc2F)cnn1C)c1ccccc1Cl
(Q) CC(OC(=O)Nc1c(-c2ccccc2F)cnn1C)c1cccc(C(F)(F)F)c1 (racemic)
Query :: Rank P against Q by their inhibition at 30 µM values and give the higher one. Answer = label.
Result :: P
(P: 97.2%, Q: 50.5%)

----------
assay-system: human recombinant LPA1 Lysophospholipid receptor (Homo sapiens, UniProt Q92633)
procedure-details: Calcium flux assay using FLIPR, LPA1R antagonist activity
experimental-parameters: ChemiScreen calcium-optimized stable cell line, FLIPR calcium flux, antagonist mode
quantity-measured: IC50 (nM)

(I) C[C@@H](OC(=O)Nc1c(-c2ccc(-c3ccc(C4(C(=O)O)CC4)cc3)cc2)cnn1C)c1ccccc1 [Example 5]
(II) C[C@@H](OC(=O)Nc1c(-c2ccc(-c3ccc(C4(C(=O)O)CC4)cc3)cc2)cnn1C)c1cccc(C(F)(F)F)c1 [Example 17]
(III) CC(OC(=O)Nc1c(-c2ccccc2)cnn1C)c1ccccc1Cl (stereo not drawn) [Example 3]
Query :: Give the order of the entries above, sorted from least to greatest IC50. Provide the labels, sequenced as the question asks.
Result :: I, II, III

(A) Cn1ncc(-c2ccc(-c3ccc(C4(C(=O)O)CC4)cc3)cc2)c1NC(=O)OC1CCC1 [Example 19]
(B) CC(OC(=O)Nc1c(-c2ccccc2F)cnn1C)c1ccccc1Cl (racemic) [Example 13]
Query :: Which has the smaller recorded IC50, A or B ? Answer = label.
Result :: A
(A: 176 nM, B: 1400 nM)

----------
assay-system: LPA3R (Homo sapiens)
Sequence (Q9UBY5 1-353): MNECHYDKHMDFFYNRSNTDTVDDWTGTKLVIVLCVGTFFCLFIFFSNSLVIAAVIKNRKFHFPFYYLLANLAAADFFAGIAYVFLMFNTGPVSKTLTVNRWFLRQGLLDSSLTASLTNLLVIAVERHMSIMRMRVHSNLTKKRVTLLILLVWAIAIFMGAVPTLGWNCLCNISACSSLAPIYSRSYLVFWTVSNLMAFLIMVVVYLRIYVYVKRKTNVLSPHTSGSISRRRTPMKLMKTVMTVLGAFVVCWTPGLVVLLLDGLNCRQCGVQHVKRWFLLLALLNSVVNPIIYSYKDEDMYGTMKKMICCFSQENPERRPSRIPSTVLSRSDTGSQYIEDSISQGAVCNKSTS
procedure-details: LPA3R antagonist activity (Table 1, calcium flux FLIPR)
quantity-measured: IC50

Some entries whose results are on file:
{"compound": "Cn1ncc(-c2ccc(-c3ccc(C4(C(=O)O)CC4)cc3)cc2)c1NC(=O)OC1COC1", "assay-system": "LPA3R (Homo sapiens)", "observed-result": "> 30 µM"}
{"compound": "C[C@@H](CC(=O)Nc1c(-c2ccc(-c3ccc(C4(C(=O)O)CC4)cc3)cc2)cnn1C)c1ccccc1", "assay-system": "LPA3R (Homo sapiens)", "observed-result": "> 30 µM"}
{"compound": "C[C@@H](OC(=O)Nc1c(-c2ccc(CC(=O)O)cc2)cnn1C)c1ccccc1", "assay-system": "LPA3R (Homo sapiens)", "observed-result": "> 30 µM"}
{"compound": "C[C@@H](OC(=O)Nc1c(-c2ccc(-c3ccc(C4(C(=O)O)CC4)cc3)cc2)cnn1C)c1ccccc1", "assay-system": "LPA3R (Homo sapiens)", "observed-result": "8.35 µM"}
{"compound": "CC(OC(=O)Nc1c(-c2ccccc2F)cnn1C)c1ccccc1Cl (racemic)", "assay-system": "LPA3R (Homo sapiens)", "observed-result": "> 30 µM"}

Shift focus to the following entry.
Measured IC50 of "C[C@@H](OC(=O)Nc1c(-c2ccccc2F)cnn1C)c1ccccc1Cl" : > 30 µM

----------
assay-system: human recombinant LPA1 Lysophospholipid receptor (Homo sapiens, UniProt Q92633)
procedure-details: Calcium flux assay using FLIPR, LPA1R antagonist activity
experimental-parameters: ChemiScreen calcium-optimized stable cell line, FLIPR calcium flux, antagonist mode
quantity-measured: IC50 (µM)

{"compound": "CC[C@@H](C)OC(=O)Nc1c(-c2ccc(-c3ccc(C4(C(=O)O)CC4)cc3)cc2)cnn1C [Example 14]", "IC50 (µM)": 0.038}

(1) CC(C)[C@@H](C)OC(=O)Nc1c(-c2ccc(-c3ccc(C4(C(=O)O)CC4)cc3)cc2)cnn1C [Example 15]
(2) C[C@@H](OC(=O)Nc1c(-c2ccccc2F)cnn1C)c1ccccc1Cl [Example 21]
Query :: Rank 1 against 2 by their IC50 values and give the higher one. Answer = label.
Result :: 2
(2: 0.644 µM, 1: 0.107 µM)

----------
assay-system: human recombinant LPA1 Lysophospholipid receptor (Homo sapiens)
procedure-details: Calcium flux assay using FLIPR, LPA1R antagonist activity
Format: cell-based
experimental-parameters: @ 30 μM
quantity-measured: inhibition at 30 µM (%)

{"molecule": "CCOC(=O)C1(c2ccc(-c3ccc(-c4cnn(C)c4NC(=O)O[C@H](C)c4ccccc4)cc3)cc2)CC1 [Example 4]", "inhibition at 30 µM [%]": 65.9}
{"molecule": "C[C@@H](OC(=O)Nc1c(-c2ccccc2)cnn1C)c1ccccc1 [Example 1]", "inhibition at 30 µM [%]": 64.8}
{"molecule": "C[C@@H](CC(=O)Nc1c(-c2ccc(-c3ccc(C4(C(=O)O)CC4)cc3)cc2)cnn1C)c1ccccc1 [Example 25]", "inhibition at 30 µM [%]": 85.5}
